Biological target: ACAT in MB-231 cells (Homo sapiens, UniProt P35610)
Construct: endogenous in cells; host or cells: MCF-7, MDA-MB-231, U-87
Sequence (P35610 1-550): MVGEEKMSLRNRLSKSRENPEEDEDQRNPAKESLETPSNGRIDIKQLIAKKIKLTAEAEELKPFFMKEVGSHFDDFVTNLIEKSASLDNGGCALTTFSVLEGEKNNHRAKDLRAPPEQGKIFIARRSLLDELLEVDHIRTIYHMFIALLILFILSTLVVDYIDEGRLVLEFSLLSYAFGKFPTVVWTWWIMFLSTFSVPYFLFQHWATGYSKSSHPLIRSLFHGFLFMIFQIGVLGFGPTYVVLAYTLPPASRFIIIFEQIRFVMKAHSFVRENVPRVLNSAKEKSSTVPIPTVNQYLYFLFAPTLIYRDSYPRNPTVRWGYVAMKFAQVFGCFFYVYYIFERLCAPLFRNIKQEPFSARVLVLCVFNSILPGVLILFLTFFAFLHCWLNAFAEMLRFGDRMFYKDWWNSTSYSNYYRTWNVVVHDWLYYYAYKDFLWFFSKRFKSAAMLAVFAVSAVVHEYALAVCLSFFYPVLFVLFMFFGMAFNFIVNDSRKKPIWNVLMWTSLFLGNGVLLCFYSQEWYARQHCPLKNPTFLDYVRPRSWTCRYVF
Assay: ACAT activity in intact MB-231 cells
Assay type: cell-based
Settings: MB-231, 24 h, [14C]cholesterol; read-out: IC50, inhibition of ACAT activity in intact cells
Measure: IC50 (µM)

Compound: CCCCCCCCCC[Si](C)(C)CCC(=O)NC(Cc1ccc(C)cc1)c1ccccc1 (stereo not drawn)
IC50 / µM: 9.1

1 = CC1(C)[C@@H](O)CC[C@]2(C)C3=C(CC[C@@H]12)[C@@]1(C)CC[C@@]2(C)CC[C@@](C)(C(=O)O)C[C@H]2[C@]1(C)CC3
2 = C=C(C)[C@@H]1CC[C@]2(C(=O)O)CC[C@]3(C)[C@H](CC[C@@H]4[C@@]5(C)CC[C@H](O)C(C)(C)[C@@H]5CC[C@]43C)[C@@H]12
Which has the smaller recorded IC50, 1 or 2 ? The response must carry the label of the picked entry. 1
(1: 29.5 µM, 2: 58.3 µM)
